assay system: Histamine H1 receptor (Homo sapiens, UniProt P35367)
Sequence (P35367 whole entry): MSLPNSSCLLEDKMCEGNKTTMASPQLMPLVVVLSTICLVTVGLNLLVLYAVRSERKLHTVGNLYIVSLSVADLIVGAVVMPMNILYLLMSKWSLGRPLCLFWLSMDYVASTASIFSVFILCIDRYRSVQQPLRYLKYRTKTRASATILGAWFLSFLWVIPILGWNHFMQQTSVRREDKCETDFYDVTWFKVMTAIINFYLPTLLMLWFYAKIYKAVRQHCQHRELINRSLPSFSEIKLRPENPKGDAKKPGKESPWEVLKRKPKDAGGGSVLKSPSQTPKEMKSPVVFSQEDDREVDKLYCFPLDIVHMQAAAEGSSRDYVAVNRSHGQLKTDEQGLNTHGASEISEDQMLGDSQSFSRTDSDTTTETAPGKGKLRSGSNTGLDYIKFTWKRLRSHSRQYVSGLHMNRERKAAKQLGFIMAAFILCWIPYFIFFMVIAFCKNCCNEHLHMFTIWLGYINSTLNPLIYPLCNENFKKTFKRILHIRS
assay info: Binding affinity for human cloned Histamine H1 receptor expressed in CHO cells using [3H]pyrilamine as radioligand
parameter measured: IC50 (nM)

>>> observed("CN(C)CC1(C)CC2c3ccccc3Cc3ccccc3N2O1 (stereo in doubt; cis)")
1.66

(A) CN(C)CC1CC2c3ccccc3Oc3ccc(Cl)cc3N2O1 (configuration not stated)
(B) CN(C)CC1CC2c3ccccc3Cc3ccccc3N2O1 (stereo in doubt; 2a)
(C) CNCC1CC2c3ccccc3Cc3ccccc3N2O1 (configuration not stated)
(D) CC(C)N(CC1CC2c3ccccc3Cc3ccccc3N2O1)C(C)C (configuration not stated)
Arrange the 4 compounds from largest to smallest IC50. Give the labels in the order specified.
D, A, C, B

The reported numbers originate from ChEMBL document CHEMBL1135380.
